Tested on: A549
assayOverview: monolayer proliferation assay, human tumour cell line panel
Type: cell-based
testSettings: means of two experiments, 3 nM-25 μM, read-out: Concentration giving 50% of maximum effect
metricName: EC50 (nM)

>>> numericvalue("CC(=O)CCC1C(=O)NC(C(C)C)C(=O)NC(Cc2cc(O)cc(F)c2)C(=O)N2CCCC(N2)C(=O)OC(C(C)=CC=CC(=O)N2CCCCO2)CC=CC=CC(O)C(C)C1O (stereo not shown)")
100

###

Tested on: LIXC-002
assayOverview: 7-day proliferation assay, Calcein AM staining
Format: cell-based, human
testSettings: Example 5, one experiment
Experimental: The cells were seeded in a 96-well plate, test compound or DMSO was added and the plate was incubated for additional four days or 7 days (Calcein AM assay). Viable cell counts were determined after detachment by treatment with trypsin either by trypan blue exclusion, flow cytometry, indirectly by measuring ATP content by addition of an ATP measuring reagent (CellTiter Glo), or Calcein AM, prepared according to the instruction of the manufacturer directly. […]
pIC50: −log10 of the molar value.
metricName: pIC50

>>> numericvalue("CC(=O)CCC1C(=O)NC(C(C)C)C(=O)NC(Cc2cc(O)cc(F)c2)C(=O)N2CCCC(N2)C(=O)OC(C(C)=CC=CC(=O)N2CCCCO2)CC=CC=CC(O)C(C)C1O (stereo not shown) [NV556]")
7.41

###

System: Huh-7
assayOverview: monolayer proliferation assay, human tumour cell line panel
Assay type: cell-based
testSettings: means of two experiments, 3 nM-25 μM, read-out: Concentration giving 50% of maximum effect
pEC50: −log10 of the molar value.
metricName: pEC50

>>> numericvalue("CC(=O)CCC1C(=O)NC(C(C)C)C(=O)NC(Cc2cc(O)cc(F)c2)C(=O)N2CCCC(N2)C(=O)OC(C(C)=CC=CC(=O)N2CCCCO2)CC=CC=CC(O)C(C)C1O (stereo not shown)")
7.52

###

Tested on: HepG2
assayOverview: monolayer proliferation assay, human tumour cell line panel
Format: cell-based
testSettings: means of two experiments, 3 nM-25 μM, read-out: Concentration giving 50% of maximum effect
pEC50: −log10 of the molar value.
metricName: pEC50

>>> numericvalue("CC(=O)CCC1C(=O)NC(C(C)C)C(=O)NC(Cc2cc(O)cc(F)c2)C(=O)N2CCCC(N2)C(=O)OC(C(C)=CC=CC(=O)N2CCCCO2)CC=CC=CC(O)C(C)C1O (stereo not shown)")
7.00

###

Tested on: LIXC-066
assayOverview: 7-day proliferation assay, Calcein AM staining
Type: cell-based, human
testSettings: Example 5, one experiment
metricName: IC50 (nM)

>>> numericvalue("CC(=O)CCC1C(=O)NC(C(C)C)C(=O)NC(Cc2cc(O)cc(F)c2)C(=O)N2CCCC(N2)C(=O)OC(C(C)=CC=CC(=O)N2CCCCO2)CC=CC=CC(O)C(C)C1O (stereo not shown)")
244

###

Tested on: LIXC-006
assayOverview: 7-day proliferation assay, Calcein AM staining
Assay type: cell-based, human
testSettings: Example 5, one experiment
metricName: IC50 (nM)

>>> numericvalue("CC(=O)CCC1C(=O)NC(C(C)C)C(=O)NC(Cc2cc(O)cc(F)c2)C(=O)N2CCCC(N2)C(=O)OC(C(C)=CC=CC(=O)N2CCCCO2)CC=CC=CC(O)C(C)C1O (stereo not shown)")
62

###

Tested on: LIXC-086
assayOverview: 7-day proliferation assay, Calcein AM staining
Type: cell-based, human
testSettings: Example 5, one experiment
Procedure: The cells were seeded in a 96-well plate, test compound or DMSO was added and the plate was incubated for additional four days or 7 days (Calcein AM assay). Viable cell counts were determined after detachment by treatment with trypsin either by trypan blue exclusion, flow cytometry, indirectly by measuring ATP content by addition of an ATP measuring reagent (CellTiter Glo), or Calcein AM, prepared according to the instruction of the manufacturer directly. […]
metricName: IC50 (µM)

>>> numericvalue("CC(=O)CCC1C(=O)NC(C(C)C)C(=O)NC(Cc2cc(O)cc(F)c2)C(=O)N2CCCC(N2)C(=O)OC(C(C)=CC=CC(=O)N2CCCCO2)CC=CC=CC(O)C(C)C1O (stereo not shown)")
9.49

###

System: RPMI 8226
assayOverview: monolayer proliferation assay, human tumour cell line panel
Format: cell-based
testSettings: means of two experiments, 3 nM-25 μM, read-out: Concentration giving 50% of maximum effect
pEC50: −log10 of the molar value.
metricName: pEC50

>>> numericvalue("CC(=O)CCC1C(=O)NC(C(C)C)C(=O)NC(Cc2cc(O)cc(F)c2)C(=O)N2CCCC(N2)C(=O)OC(C(C)=CC=CC(=O)N2CCCCO2)CC=CC=CC(O)C(C)C1O (stereo not shown)")
6.70

Attribution: patent US10857150B2
